meta.source: patent US20120045393A1

target: LHRH binding sites on EFO-27 human ovarian cancer cells (human)
method.summary: competition with [125I-Tyr8]BRU-2477 on EFO-27 cells
Non-standard residues stand in square brackets, D forms with d. Primed or numbered codes have the meaning given here. DO3A10CM″ = chelating group at the N-terminus (X in the sequence tables); azaGly′ = aza-glycine residue at the C-terminus, with NH2; Bpa = N[C@@H](Cc1ccc(C(=O)c2ccccc2)cc1)C(=O)O; d2Nal = N[C@H](Cc1ccc2ccccc2c1)C(=O)O; DO3A10CM = not defined here; Bpa4 = non-natural residue; Apgly = not defined here; Gufe4 = not defined here; Prgly = not defined here; azaGly = NNC(=O)O
measured.metric: EC50 (nM)

Known results for binders:
- binder: "XHWSHXWXPX (DO3A10CM on N-terminus; AA1 EtGly; AA6 Darg; AA8 Bpa4; AA10 azaGly-NH2) [BRU-2788]"
  measured.metric: "EC50"
  reading: 210
- binder: "DO3A10CM-[d2Nal]RWSH[dR]W[Bpa4]PGR-NH2 (reading uncertain) [BRU-2969]"
  measured.metric: "EC50"
  reading: 240
- binder: "XHWSHXWXPX (DO3A10CM on N-terminus; AA1 Dnal1; AA6 Darg; AA8 Bpa4; AA10 azaGly-NH2) [BRU-2869]"
  measured.metric: "EC50"
  reading: 360
- binder: "DO3A10CM-G[Prgly]HWSH[dR]W[Bpa]P[azaGly]-NH2 (reading uncertain) [BRU-2794]"
  measured.metric: "EC50"
  reading: 1300
- binder: "XHWSHXWXPX (DO3A10CM on N-terminus; AA1 Sar; AA6 Darg; AA8 Lys(isp); AA10 azaGly-NH2) [BRU-2675]"
  measured.metric: "EC50"
  reading: 12300
- binder: "XRWSHXWXPGX (DO3A10CM on N-terminus; AA1 Dnal2; AA6 Darg; AA8 Bpa4; AA10 Gly-NH2 (amide)) [BRU-3005]"
  measured.metric: "EC50"
  reading: 660
- binder: "DO3A10CM-[d2Nal][Gufe4]WSH[dR]W[Bpa]P[azaGly′]-NH2 (reading uncertain) [BRU-3058]"
  measured.metric: "EC50"
  reading: 260
- binder: "XHWSHXWXPX (DO3A10CM on N-terminus; AA1 Sar; AA6 Darg; AA8 Bip; AA10 azaGly-NH2) [BRU-2625]"
  measured.metric: "EC50"
  reading: 2140
- binder: "XHWSHXWXPX (DO3A10CM on N-terminus; AA1 Damfe4; AA6 Darg; AA8 Bpa4; AA10 azaGly-NH2) [BRU-2757]"
  measured.metric: "EC50"
  reading: 260
- binder: "{DO3A10CM″}-G[Mephe]HWSHRW[Bpa]P[azaGly]-NH2 (not fully specified (residue 7)) [BRU-2755]"
  measured.metric: "EC50"
  reading: 1290

A: XRWSHXWXP (not fully specified; DO3A10CM on N-terminus; AA1 Dnal2 (Table 6; Sar in paragraph 138); AA6 Darg; AA8 Bpa4; AA10 Az23po-Da15o3pt) [BRU-3022]
B: DO3A10CM-G[Apgly]HWSHRW[Bpa]P[azaGly]-NH2 (not fully specified (residue 7); reading uncertain; also: AA6 Darg prints R) [BRU-2874]
Prompt line: // pick larger EC50 from pair: A vs B Refer to your chosen item by its label in the answer.
Response line: B
